B1: HDV Ribozyme (parent)
chain: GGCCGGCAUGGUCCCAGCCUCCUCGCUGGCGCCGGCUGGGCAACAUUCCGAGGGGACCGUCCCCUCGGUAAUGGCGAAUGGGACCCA

# Variants of: B1
# Protocol summary: self-cleavage, relative activity (ratio to wild type); higher = more cleavage; co-transcriptional
List of self-cleavage values.
Measured quantity: self-cleavage

mutation_name="C24U C32U" recorded_value=0.422
mutation_name="C19A G50U" recorded_value=0.254
mutation_name="C19G C41A" recorded_value=0.157
mutation_name="U79A A87U" recorded_value=0.98
mutation_name="G10A A42C" recorded_value=0.0875
mutation_name="G31A A45C" recorded_value=0.262
mutation_name="G1C A71C" recorded_value=0.256
mutation_name="C7U C57U" recorded_value=0.927
mutation_name="G2A A51C" recorded_value=0.203
mutation_name="G1C C24A" recorded_value=0.142
mutation_name="U27C U79A" recorded_value=0.511
mutation_name="U27A U46C" recorded_value=0.733
mutation_name="C3G C19G" recorded_value=0.0326
mutation_name="U27C G34A" recorded_value=0.289
mutation_name="U20G G31U" recorded_value=0.102
mutation_name="C14U C86G" recorded_value=1.12
mutation_name="C7U G54A" recorded_value=0.787
mutation_name="G2U C32U" recorded_value=0.0437
mutation_name="C14U U23G" recorded_value=0.712
mutation_name="C48U U60A" recorded_value=1
mutation_name="U69G A83C" recorded_value=0.554
mutation_name=G11C recorded_value=0.314
